meta.source: PubChem BioAssay

MEASUREMENT PROTOCOL: reversal of MRP1-mediated doxorubicin resistance, pilot screen, H69AR cells, doxorubicin co-treatment (AID 601)
CONDITIONS: H69AR cells + 2 uM doxorubicin, CellTiter-Glo, 72 h; at 10 µM; stronger effect = higher value
The source made the active and inactive calls.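 Rule for the calls: active = viability loss from added drug above about 55%, and viability with drug at most 40%, in both replicates (limit read from the data, passing the limit was not always enough); inconclusive = both conditions met in only one replicate; inactive = neither replicate meets both conditions.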

STRUCTURE SMILES STRING | differential viability (reversal)
O=C(CSc1nnc(-c2cnccn2)n1Cc1ccco1)c1ccc(Cl)cc1 | -2.83% (inactive)
Cc1cc(=O)oc2ccc(OCC(=O)N(Cc3ccc(F)cc3)Cc3ccco3)cc12 | 11.6% (inactive)
Cc1ccccc1-c1nc(CS(=O)(=O)CC(=O)N(C)C2CCCCC2)c(C)o1 | 0.46% (inactive)
O=S(=O)(c1ccc2c(c1)OCCO2)N1CCC(n2nnc3cc(F)ccc32)CC1 | -5.86% (inactive)
C=CCn1c(SCc2ccc3nonc3c2)nnc1-c1cccs1 | 2.61% (inactive)

---

Overview of reported inhibition across a group of compounds:
MEASUREMENT PROTOCOL: growth suppression of yeast trafficking mutant, preliminary HTS, modulators of trafficking downstream of Golgi apparatus project, 1536-format plate, OD 615 nm (AID 637)
CONDITIONS: yeast transport mutant growth, absorbance 615 nm, 18 h; stronger effect = higher value
Active and inactive are the calls of the source. Rule as the data show it: active = inhibition above about 30%; inactive = the rest.

COMPOUND | inhibition
CN(CCCC(=O)Nc1ccncc1)S(=O)(=O)c1ccc(Cl)cc1 | -5.87% (inactive)
COc1ccc2nc(S(=O)Cc3ncc(C)c(OC)c3C)[nH]c2c1 (stereo not drawn) | -2.5% (inactive)
CCOc1cc(NC(=O)c2ccccn2)c(OCC)cc1NC(=O)CC(C)C | -6.23% (inactive)
Cc1cc(C)nc(N2CCC(C(=O)Nc3ccc(Oc4ccccc4)cc3)CC2)n1 | 1.09% (inactive)
CCOC(=O)Cc1nnc(NC(=O)CSc2nnc3c4ccccc4n(C(C)C)c3n2)s1 | -1.43% (inactive)
Cc1[nH]c2ccc(F)cc2c(=O)c1SC(F)(F)C(F)C(F)(F)F (stereo not drawn) | -5.27% (inactive)
Cc1cc(C)nc(SCc2nnc(SCC(=O)Nc3ncc(C)s3)n2Cc2ccco2)n1 | -5.09% (inactive)
CCCCNC(=O)c1cc(-c2ccc(F)cc2)on1 | -1.11% (inactive)
CCOC(=O)C(C)C1(O)c2ccccc2-c2ncccc21 (stereo not drawn) | 1.27% (inactive)
COc1cc(C(=O)Nc2nc(-c3cccs3)cs2)cc(OC)c1OC | 23.6% (inactive)
CC(C)OP(=O)(c1ccc(N(C)C)cc1)C(O)c1ccccc1F (stereo not drawn) | 3.06% (inactive)
CCCCn1c(=O)[nH]c(=O)c2c1nc(COc1ccc(C#N)cc1)n2CCC | -2.46% (inactive)
CC(C)NC(=O)c1ccccc1NC(=O)CCS(=O)(=O)Cc1ccccc1 | 9.82% (inactive)
Cc1cc(S(=O)(=O)N(Cc2ccccc2)Cc2ccc(N(C)C)cc2)ccc1-n1cnnn1 | -2.36% (inactive)
CC(OC(=O)c1cccc(NS(C)(=O)=O)c1)C(=O)Nc1ccc(N2CCOCC2)cc1 (stereo not drawn) | -2.54% (inactive)
CC(C)(C)n1ncc2c(=O)n(CC(=O)NCc3ccccc3)cnc21 | -1.27% (inactive)
COc1ccc(CCNC(=O)c2cc(C(C)C)on2)cc1OC | -0.67% (inactive)
O=C(Nc1nc2ccc(S(=O)(=O)N3CCCC3)cc2s1)C1CCCO1 (stereo not drawn) | 0% (inactive)
CCc1nnc(NC(=O)CSc2nnc3ncccn23)s1 | 3.27% (inactive)
COc1ccccc1-n1c(SCC(=O)NC(C)(C)C)nnc1-c1ccco1 | -3.45% (inactive)
Cc1ccc2nc(SC(C)C(=O)N3CCCC3)[nH]c2c1 (stereo not drawn) | -6.35% (inactive)
Clc1ccccc1OCCCCn1ccnc1 | -4.33% (inactive)
Cc1cc(C(=O)Nc2c(C)n(C)n(-c3ccccc3)c2=O)c(C)o1 | 4.91% (inactive)
